Tested on: NRF2
assay-info: NRF2 activation assay (DiscoverX PathHunter NRF2 translocation kit, U2OS cells)
Type: cell-based
condition: Homo sapiens, 6 hours, normalised to DMF high control, class symbols
experimental-readout: Emax

>>> df
                            chemical_smiles  target_system  recorded_value
0  C=C(Cc1nc(Cc2ccc(CCCCC)cc2)no1)C(=O)O[C@H](CC(=O)O)C(F)(F)F           NRF2     101 to 134%
1         C=C(Cc1nc(CCCCC)no1)C(=O)OCC(=O)O           NRF2     166 to 250%
2  C=C(Cc1nc(CCCCCCCC)no1)C(=O)O[C@@H](CC(=O)O)C(F)(F)F           NRF2          > 250%
3     C=C(Cc1nc(CCCCCCCC)no1)C(=O)OCCC(=O)O           NRF2     135 to 165%
4  C=C(Cc1nc(C2(c3ccc(C(F)(F)F)cc3)CC2)no1)C(=O)O[C@H](CC(=O)O)C(F)(F)F           NRF2       3 to 100%

I have 3 compounds here; please give me Emax for each one.
1. C=C(Cc1nc(Cc2ccc(CCCC)cc2)no1)C(=O)O[C@@H](CC(=O)O)C(F)(F)F
2. C=C(Cc1nc(Cc2ccc(CCCC)cc2)no1)C(=O)OCc1nnn[nH]1
3. C=C(Cc1nc(C2(c3ccc(C(F)(F)F)cc3)CC2)no1)C(=O)OCC(=O)O

Response:
1. 135 to 165%
2. 135 to 165%
3. 135 to 165%

====

assay-info: Hepatocyte stability assay, mouse cryopreserved hepatocytes
Assay type: in vitro ADME
condition: cryopreserved hepatocytes; Mouse hepatocytes, 10 μM, 60 min; numeric values; read-out: T½
experimental-readout: half-life at 10 μM (min)
Give bare numbers, in min.

Request: I am curious: what half-life at 10 μM value has been reported for C=C(Cc1ccccc1Cl)C(=O)O [2-(2-chlorobenzyl)acrylic acid, reference compound] ?
Response: 11

====

Would you mind telling me the reported Emax of each entry?
Test system: NRF2
assay-info: NRF2 activation assay (DiscoverX PathHunter NRF2 translocation kit, U2OS cells)
Type: cell-based
condition: Homo sapiens, 6 hours, normalised to DMF high control, class symbols

Reference set, count: 3
                            chemical_smiles  recorded_value
0  C=C(Cc1nc(CCCCCCCC)no1)C(=O)O[C@H](CC(=O)O)C(F)(F)F     135 to 165%
1  C=C(Cc1nc(Cc2ccc(CCCC)cc2)no1)C(=O)O[C@H](CC(=O)O)C(F)(F)F     101 to 134%
2  C=C(Cc1nc(C2(c3ccc(SC(F)(F)F)cc3)CC2)no1)C(=O)OCC(=O)O     135 to 165%

Request: I am curious: what Emax value has been reported for `C=C(Cc1nc(C2(c3ccc(Br)cc3)CC2)no1)C(=O)OCC(=O)O` ?
Response: 166 to 250%

====

assay-info: Hepatocyte stability assay, human cryopreserved hepatocytes
Type: in vitro ADME
condition: cryopreserved hepatocytes; Human hepatocytes, 10 μM, 60 min; class symbols; read-out: T½
Would you mind telling me the reported half-life at 10 μM of each entry?

In [3]: df
Out[3]:
                                   compound  experimental_readout  recorded_value
0  C=C(Cc1nc(C2(c3ccc(Br)cc3)CC2)no1)C(=O)OCC(=O)O    half-life at 10 μM   60 to 100 min
1  C=C(Cc1nc(CCCCCCCC)no1)C(=O)O[C@@H](CC(=O)O)C(F)(F)F    half-life at 10 μM     5 to 59 min
2  C=C(Cc1nc(Cc2ccc(OC(F)(F)F)cc2)no1)C(=O)OCC(=O)O    half-life at 10 μM       > 100 min
3  C=C(Cc1nc(C2(c3ccc(OC(F)(F)F)cc3)CC2)no1)C(=O)OCC(=O)O    half-life at 10 μM     5 to 59 min

I have 4 compounds here; please give me half-life at 10 μM for each one.
1. C=C(Cc1nc(CCCCCCCC)no1)C(=O)O[C@H](CC(=O)O)C(F)(F)F
2. C=C(Cc1nc(Cc2ccc(CCCC)cc2)no1)C(=O)OCCc1nnn[nH]1
3. C=C(Cc1nc(Cc2ccc(CCCC)cc2)no1)C(=O)OCCC(=O)O
4. C=C(Cc1nc(Cc2ccc(CCCC)cc2)no1)C(=O)OCc1nnn[nH]1

Response:
1: 5 to 59 min; 2: 5 to 59 min; 3: 5 to 59 min; 4: 5 to 59 min

I have 4 compounds here; please give me half-life at 10 μM for each one.
1. C=C(Cc1nc(C2(c3ccc(C(F)(F)F)cc3)CC2)no1)C(=O)O[C@H](CC(=O)O)C(F)(F)F
2. C=C(Cc1nc(C2(c3ccc(C(F)(F)F)cc3)CC2)no1)C(=O)O[C@@H](CC(=O)O)C(F)(F)F
3. C=C(Cc1nc(Cc2ccc(Cl)cc2)no1)C(=O)OCC(=O)O
4. C=C(Cc1nc(C2(c3ccc(SC(F)(F)F)cc3)CC2)no1)C(=O)OCC(=O)O

Response:
["5 to 59 min", "5 to 59 min", "> 100 min", "5 to 59 min"]

I have 6 compounds here; please give me half-life at 10 μM for each one.
1. C=C(Cc1nc(Cc2ccc(CCCC)cc2)no1)C(=O)OCC(=O)O
2. C=C(Cc1nc(C2(c3ccc(C(F)(F)F)cc3)CC2)no1)C(=O)OCC(=O)O
3. C=C(Cc1nc(CCCCCCCC)no1)C(=O)OCCC(=O)O
4. C=C(Cc1nc(Cc2ccc(CCCC)cc2)no1)C(=O)O[C@@H](CC(=O)O)C(F)(F)F
5. C=C(Cc1nc(CCCCCCCC)no1)C(=O)OCC(=O)O
6. C=C(Cc1nc(CCCCCCCC)no1)C(=O)OC(C(F)(F)F)C(C)(C)C(=O)O (stereo not drawn)

Response:
1: 5 to 59 min; 2: 60 to 100 min; 3: 5 to 59 min; 4: < 5 min; 5: 5 to 59 min; 6: 5 to 59 min
